Source of measurements: paper PMC12144822

ASSAY_TARGET: Clu-GABA α1β2γ2 (Canis lupus familiaris, UniProt A0A2H4NNI8+A0A8I3RPG5+E2RSQ0)
Sequence (A0A2H4NNI8 28-456): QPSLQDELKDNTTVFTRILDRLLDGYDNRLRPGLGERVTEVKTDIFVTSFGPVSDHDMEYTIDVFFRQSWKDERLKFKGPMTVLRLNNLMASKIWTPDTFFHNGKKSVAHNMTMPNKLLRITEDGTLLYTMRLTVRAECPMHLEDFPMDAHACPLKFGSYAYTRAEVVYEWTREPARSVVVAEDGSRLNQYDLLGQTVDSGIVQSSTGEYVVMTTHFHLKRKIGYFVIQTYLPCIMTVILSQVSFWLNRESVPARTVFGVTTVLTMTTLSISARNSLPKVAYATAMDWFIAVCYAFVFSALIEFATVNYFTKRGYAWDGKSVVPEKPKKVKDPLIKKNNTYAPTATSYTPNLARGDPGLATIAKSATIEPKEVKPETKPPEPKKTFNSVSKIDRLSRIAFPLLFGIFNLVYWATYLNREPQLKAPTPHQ
Sequence (A0A8I3RPG5 25-473): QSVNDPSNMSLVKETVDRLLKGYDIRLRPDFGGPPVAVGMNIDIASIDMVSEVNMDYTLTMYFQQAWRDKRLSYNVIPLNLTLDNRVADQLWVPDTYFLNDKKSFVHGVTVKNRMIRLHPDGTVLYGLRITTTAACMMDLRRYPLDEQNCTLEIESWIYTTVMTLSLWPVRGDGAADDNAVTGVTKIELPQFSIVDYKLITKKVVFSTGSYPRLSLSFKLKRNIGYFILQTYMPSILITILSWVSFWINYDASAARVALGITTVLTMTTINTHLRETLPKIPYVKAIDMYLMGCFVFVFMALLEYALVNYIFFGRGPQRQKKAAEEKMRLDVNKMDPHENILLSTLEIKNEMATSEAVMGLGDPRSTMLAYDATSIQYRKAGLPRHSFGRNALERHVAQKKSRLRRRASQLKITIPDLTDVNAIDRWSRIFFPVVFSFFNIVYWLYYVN
Sequence (E2RSQ0 40-467): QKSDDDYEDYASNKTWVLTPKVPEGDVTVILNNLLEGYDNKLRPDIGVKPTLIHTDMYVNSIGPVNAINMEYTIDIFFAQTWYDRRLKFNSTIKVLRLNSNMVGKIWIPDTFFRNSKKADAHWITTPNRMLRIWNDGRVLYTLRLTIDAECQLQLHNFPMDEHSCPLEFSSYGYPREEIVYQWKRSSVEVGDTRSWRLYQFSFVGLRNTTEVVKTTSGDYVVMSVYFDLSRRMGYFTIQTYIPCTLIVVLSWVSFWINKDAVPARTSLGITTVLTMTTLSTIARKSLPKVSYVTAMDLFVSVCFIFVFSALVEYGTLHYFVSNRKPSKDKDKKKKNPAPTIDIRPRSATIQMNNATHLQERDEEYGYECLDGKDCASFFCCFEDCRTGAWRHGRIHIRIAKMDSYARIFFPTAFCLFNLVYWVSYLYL
PROTOCOL_DETAILS: Two-electrode voltage-clamp inhibition of GABA current, receptor expressed in Xenopus oocytes
Assay type: cell-based
QUANTITY: IC50

Query: Which IC50 reading was recorded for the compound "Cc1cc(C2=NO[C@@](c3cc(Cl)c(Cl)c(Cl)c3)(C(F)(F)F)C2)sc1C(=O)NCC(=O)NCC(F)(F)F" ?
Result: > 30 µM

----------
ASSAY_TARGET: Hsa-GABA α1β2γ2 (Homo sapiens, UniProt P14867+P18507+P47870)
Sequence (P14867 28-456): as the sequence (A0A2H4NNI8 28-456) above
Sequence (P47870 26-474 isoform P47870-1 limits assumed): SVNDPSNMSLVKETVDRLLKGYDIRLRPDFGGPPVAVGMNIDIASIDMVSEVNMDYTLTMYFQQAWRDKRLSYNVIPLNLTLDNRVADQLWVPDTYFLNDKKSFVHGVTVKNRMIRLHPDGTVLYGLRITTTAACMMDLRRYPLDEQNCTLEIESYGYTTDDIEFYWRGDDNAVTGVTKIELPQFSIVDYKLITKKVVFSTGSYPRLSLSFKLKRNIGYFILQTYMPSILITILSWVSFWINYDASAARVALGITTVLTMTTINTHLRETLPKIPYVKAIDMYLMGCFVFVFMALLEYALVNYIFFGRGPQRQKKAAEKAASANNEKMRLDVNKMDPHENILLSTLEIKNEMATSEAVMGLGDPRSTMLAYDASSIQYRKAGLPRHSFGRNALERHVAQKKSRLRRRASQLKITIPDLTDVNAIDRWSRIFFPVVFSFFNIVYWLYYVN
Sequence (P18507 40-467 isoform P18507-1 limits assumed): as the sequence (E2RSQ0 40-467) above
PROTOCOL_DETAILS: Two-electrode voltage-clamp inhibition of GABA current, receptor expressed in Xenopus oocytes
CONDITION_DESCRIPTION: Xenopus oocytes, −80 mV, 60 s pre-exposure, co-applied with GABA 1 µM (near EC10)
QUANTITY: IC50 (µM)
Please respond with the number in µM and leave the unit unwritten.

Query: Recorded IC50 for Cc1cc(C2=NOC(c3cc(Cl)cc(Cl)c3)(C(F)(F)F)C2)ccc1C(=O)NCC(=O)NCC(F)(F)F (centres unmarked) with Hsa-GABA α1β2γ2 (Homo sapiens, UniProt P14867+P18507+P47870), please?
Result: 5.7

---
Query: Recorded IC50 for "CS(=O)(=O)CC(=O)N1CC2(C1)OCc1cc(C3=NO[C@@](c4cc(Cl)c(F)c(Cl)c4)(C(F)(F)F)C3)ccc12" with Hsa-GABA α1β2γ2 (Homo sapiens, UniProt P14867+P18507+P47870), please?
Result: 21.9
